Data provenance: the supplement of paper PMC12042874

- Measurement notes: amyloid nucleation score (Sup35N fusion, yeast selection) (log enrichment); library NNK2; higher = more nucleation; inactive = no reads after selection;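 note: zero at mode of non-aggregating sequences after 7 days selection at 30°C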
Answer -1 if amyloid nucleation score is under -0.1, and 1 if it is -0.1 or more.

# check: amyloid nucleation score of VWYYGSRKCHAVYLRNRMSV is greater than or equal to -0.1
-1

# check: amyloid nucleation score of KLHSVQLNTRVLIN is greater than or equal to -0.1
1

# check: amyloid nucleation score of LWQVRIRPQH is greater than or equal to -0.1
1

---

- Measurement notes: amyloid nucleation score (Sup35N fusion, yeast selection) (log enrichment); library NNK1; higher = more nucleation; inactive = no reads after selection
Grouping key: amyloid nucleation score. Bins: LOW: < -0.02; MEDIUM: ≥ -0.02 and < 0.6; HIGH: ≥ 0.6

Here's what some known entries look like.
>  <Substance>
NCSGCIWVRMCLNHFGVCTD

>  <Group>
HIGH

$$$$
>  <Substance>
PLPVVA

>  <Group>
MEDIUM

$$$$
>  <Substance>
VIGLSQWVNSLSYRFEMQNL

>  <Group>
HIGH

$$$$
>  <Substance>
SKQGRCLTFYQYVSLIISSM

>  <Group>
LOW

$$$$
>  <Substance>
SCKRSA

>  <Group>
MEDIUM

$$$$

Lab note: which band did CSIVYCMCGLCAS land in?
HIGH

Lab note: which band did IYSRVGWETSWDWSVSVWGF land in?
MEDIUM

Lab note: which band did SCGLINWLRVYHLLSLNSGS land in?
HIGH

Lab note: which band did SSVSPIHHRLYKTETPMWLT land in?
LOW

Lab note: which band did QGCMATYSGVGDACWGVRVS land in?
HIGH
